# TESTED_ON: P2X purinoceptor 7 (Rattus norvegicus, UniProt Q64663)
# Sequence (Q64663 whole entry): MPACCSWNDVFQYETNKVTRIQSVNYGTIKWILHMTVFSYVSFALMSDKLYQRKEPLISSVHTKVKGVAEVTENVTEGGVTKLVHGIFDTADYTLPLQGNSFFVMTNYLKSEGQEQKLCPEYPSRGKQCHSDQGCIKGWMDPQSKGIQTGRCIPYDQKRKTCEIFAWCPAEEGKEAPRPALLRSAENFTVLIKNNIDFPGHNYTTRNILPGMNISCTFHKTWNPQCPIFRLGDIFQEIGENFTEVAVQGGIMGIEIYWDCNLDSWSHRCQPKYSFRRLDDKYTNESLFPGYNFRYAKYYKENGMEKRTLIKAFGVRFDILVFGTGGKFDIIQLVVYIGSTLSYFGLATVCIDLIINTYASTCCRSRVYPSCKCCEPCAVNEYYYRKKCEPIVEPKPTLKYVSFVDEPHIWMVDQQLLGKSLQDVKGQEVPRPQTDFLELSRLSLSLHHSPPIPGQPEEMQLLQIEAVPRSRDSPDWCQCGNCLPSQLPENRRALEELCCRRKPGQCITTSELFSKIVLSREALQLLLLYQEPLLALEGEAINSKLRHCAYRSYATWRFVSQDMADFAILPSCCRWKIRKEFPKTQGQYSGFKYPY
# ASSAY_NOTES: Antagonist activity at P2X7 receptor in rat whole blood
PROPERTY_MEASURED: IC50 (nM)
The response must be a number in nM with no trailing unit.

Query: Write IC50 of CCN1C(=O)c2nc(-c3ccc(-c4ccccc4)cc3)n(Cc3ccc(F)c(F)c3)c2N2CC(C)(C)N=C12 ; system used: P2X purinoceptor 7 (Rattus norvegicus, UniProt Q64663)
Result: 121
